- Tested on: SB.msgc-1
- method-summary: AC50 for growth inhibition (viability) (log10 M); higher = less potent
- stated-conditions: SB.msgc-1 (sporadic gastric cancer)
result-type: AC50 for growth inhibition (log10 M)
Reply with the value as a number alone.

- compound: "O=C(C=CC#Cc1cccc(N[S+](=O)([O-])c2ccccc2)c1)NO"
  AC50 for growth inhibition (log10 M): -5.58

Identify measured AC50 for growth inhibition (log10 M) corresponding to NC/1=N/C(=O)N(/C=N1)[C@@H]2O[C@H](CO)[C@@H](O)[C@H]2O
-5.53

Identify measured AC50 for growth inhibition (log10 M) corresponding to COc1ccc(-c2ccc3c(N4CCOC[C@@H]4C)nc(N4CCOC[C@@H]4C)nc3n2)cc1CO
-5.98

Identify measured AC50 for growth inhibition (log10 M) corresponding to CN(C)Cc1cccc(N/C(=C2\C(=O)Nc3cc(C(=O)N(C)C)ccc32)c2ccccc2)c1
-5.23

Identify measured AC50 for growth inhibition (log10 M) corresponding to O=C(O)c1cccc(-c2noc(-c3ccccc3F)n2)c1
-4.83

Identify measured AC50 for growth inhibition (log10 M) corresponding to CNC(=O)c1ccc(N2C(=S)N(c3ccc(C#N)c(C(F)(F)F)c3)C(=O)C23CCC3)cc1F
-5.13

Identify measured AC50 for growth inhibition (log10 M) corresponding to COc1ccc([C@@H]2CNC(=O)C2)cc1OC1CCCC1 [S-(+)-Rolipram]
-5.58

Identify measured AC50 for growth inhibition (log10 M) corresponding to O=[S+]([O-])(NCCNC/C=C/c1ccc(Br)cc1)c1cccc2cnccc12
-4.73

Identify measured AC50 for growth inhibition (log10 M) corresponding to O=C(O)c1ccc(O)c2ncc(N3CCOCC3)cc12
-4.78

Values from the supplement of paper PMC5412046
